# Tested on: HeLa
# assayExplanation: Cytotoxicity against human HeLa cells
# Type: functional
# recordedConditions: read-out: LC50 (the source's name)
Counter-ions that a name gives are not always drawn.
# key: entry, value: CC50

compound	testTarget	CC50
COc1ccc2nc(NC(=O)COc3cc4cc(c3)Oc3cc(c([N+](=O)[O-])cc3[N+](=O)[O-])Oc3cc(OCC(=O)Nc5nc6ccc(OC)cc6s5)cc(c3)Oc3cc(c([N+](=O)[O-])cc3[N+](=O)[O-])O4)sc2c1	HeLa	> 100 µM
O=C(COc1cc2cc(c1)Oc1cc(c([N+](=O)[O-])cc1[N+](=O)[O-])Oc1cc(OCC(=O)Nc3cccc4c3C(=O)c3ccccc3C4=O)cc(c1)Oc1cc(c([N+](=O)[O-])cc1[N+](=O)[O-])O2)Nc1cccc2c1C(=O)c1ccccc1C2=O	HeLa	> 100 µM
COc1cccc2c1C(=O)c1c(O)c3c(c(O)c1C2=O)C[C@@](O)(C(=O)CO)C[C@@H]3O[C@H]1C[C@H](N)[C@H](O)[C@H](C)O1 [DOXORUBICIN HYDROCHLORIDE]	HeLa	95.5 µM

* * *

# key: entry, value: MIC
# System: Streptococcus pyogenes
# assayExplanation: Antibacterial activity against Streptococcus pyogenes by broth micro-dilution method
# Assay type: functional

smilesCode	MIC, µg/mL
O=C(COc1cc2cc(c1)Oc1cc(c([N+](=O)[O-])cc1[N+](=O)[O-])Oc1cc(OCC(=O)Nc3cccc4c3C(=O)c3ccccc3C4=O)cc(c1)Oc1cc(c([N+](=O)[O-])cc1[N+](=O)[O-])O2)Nc1cccc2c1C(=O)c1ccccc1C2=O	1
O=C(Oc1cc2cc(c1)Oc1cc(c([N+](=O)[O-])cc1[N+](=O)[O-])Oc1cc(OC(=O)c3cccc4ccccc34)cc(c1)Oc1cc(c([N+](=O)[O-])cc1[N+](=O)[O-])O2)c1cccc2ccccc12	12.5
CCn1cc(C(=O)O)c(=O)c2cc(F)c(N3CCNCC3)cc21	1
